Reference source for all entries: PubChem BioAssay (NCI)

Experiment: NCI Yeast Anticancer Drug Screen. Data for the sgs1 mgt1 strain (AID 161);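 further: 0% = growth of cultures given vehicle only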
Conditions: S. cerevisiae sgs1 mgt1 strain, at 50.0 µM (retest, dose inferred, filed as 5.0), active compounds read high
Compounds without any hit were thinned out: in the full panel of roughly 79,000, 15% have a hit.
MEASUREMENT_KIND: growth inhibition (%)
Answer format: numeric, % implied, no suffix.

Consider the worked cases shown below.
{"columns": ["COMPOUND", "MEASURE_UNIT", "RESULT"],
 "data": [
  ["Cc1cc(C[P+](c2ccccc2)(c2ccccc2)c2ccccc2)c(C)cc1C[P+](c1ccccc1)(c1ccccc1)c1ccccc1", "%", 61],
  ["Cc1ccc(SCc2nc3ccccc3c(C)[n+]2[O-])cc1", "%", 87],
  ["CSC(=S)NN=C(c1ccccc1)c1ccccc1", "%", 99],
  ["c1csc(CNCc2cccs2)c1", "%", -5],
  ["CN(/N=C\\c1cccc([N+](=O)[O-])c1)C(c1cccc([N+](=O)[O-])c1)N(C)/N=C/c1cccc([N+](=O)[O-])c1 (stereo unspecified)", "%", 74]
]}

Now, please, on to the next compound.
Data point: "CCOc1ccc(/C=C\c2ccnc3ccccc23)cc1OCC" ; growth inhibition = 99

---

# growth inhibition annotations
Experiment: NCI Yeast Anticancer Drug Screen. Data for the sgs1 mgt1 strain (AID 161);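 further: 0% = growth of cultures given vehicle only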
Settings: S. cerevisiae sgs1 mgt1 strain, at 5.0 µM (retest, dose inferred, filed as 0.5), active compounds read high
Compounds without any hit were thinned out: in the full panel of roughly 79,000, 15% have a hit.
Answer format: numeric, % implied, no suffix.

Consider the worked cases shown below.
{"columns": ["STRUCTURE_SMILES_STRING", "RESULT"],
 "data": [
  ["O=[N+]([O-])/C(Cl)=C/C(=C1/Nc2ccccc2O1)[N+](=O)[O-]", -14],
  ["Nc1ncnc2c1cnn2C1CCCCC1", 0]
]}

Now, please, on to the next molecule.
Data point: "CCCCN(CCCC)CCCCCCNc1cc(OC)cc2cccnc12" ; growth inhibition = 3

---

Assay: NCI Yeast Anticancer Drug Screen. Data for the mec2-1 strain (AID 157)
Conditions: S. cerevisiae mec2-1 strain, at 50.0 µM (retest, dose inferred, filed as 5.0), active compounds read high
About 79,000 compounds went through this panel and 15% of them were active in at least one assay; those are over-represented in the sample as a whole.
Could you label it Fulfilled if measured growth inhibition is 50% or higher, and Not fulfilled otherwise?

Study these solved cases before continuing.
{"columns": ["MOLECULE", "CLASS_LABEL"],
 "data": [
  ["N#CC(=C1C=CC(=NOC(=O)Nc2ccccc2)C=C1)c1ccccc1", "Fulfilled"],
  ["CN(C)C(=S)/N=c1\\ssc(=S)n1Cc1ccco1", "Not fulfilled"],
  ["CCCCN(CCCC)S(=O)(=O)c1ccccc1", "Not fulfilled"],
  ["O=C(NCCCN1CC2CCCC2C1)C(C1CCCCC1)C1CCCCC1 (stereo not given)", "Fulfilled"],
  ["COC(=O)C1c2cc3c(c(O)c2CCC1(C)O)C(=O)c1c(O)cc2c(c1C3=O)OC1OC2(C)C(O)C(N(C)C)C1O (stereo not given)", "Fulfilled"],
  ["O=C(O)COc1c(Cl)c(Cl)c(Cl)c(Cl)c1Cl.[Cu+2]", "Fulfilled"],
  ["CC1C2CC(C(S(=O)(=O)N3CCOCC3)/C2=N\\O)C1(C)C (stereo not given)", "Not fulfilled"],
  ["CC(=O)N[C@H]1CC[C@H]2[C@@H]3CCC4=CC(=O)CC[C@]4(C)[C@H]3CC[C@]12C", "Fulfilled"]
]}

Can CC12OC(=O)C(C(N)=O)=C1C=C(c1ccccc1)CC2c1ccccc1 (stereo not given) be said to have growth inhibition at or above 50%?
Fulfilled

Can "C/C(=N\NC(=S)N/N=C(\C)c1ccccn1)c1ccccn1" be said to have growth inhibition at or above 50%?
Fulfilled
